The origin of these recorded values is paper PMC10761660.

# assayProtocol: Liver microsome assay
# Type: in vitro ADME, murine
# assaySetup: mouse, liver microsomes, t1/2 approach (at 3-4 µM), 1 mg/mL MLM, 2 mM NADPH, radio-TLC

[
  {
    "compound": "C=CC(=O)NCCCCC(NC(=O)Cc1ccccc1)C(=O)N1CCN(c2cccc([18F])n2)CC1 (stereo not shown) [[^18F]7b]",
    "half-life / min": 7.2
  }
]

====

# assayProtocol: Metabolic stability and arterial blood clearance in a normal Wistar rat
# Type: in vivo
# assaySetup: male, Wistar, rat, whole blood (arterial), iv, 5.27 nmol, radio-HPLC

[
  {
    "compound": "C=CC(=O)NCCCCC(NC(=O)Cc1ccccc1)C(=O)N1CCN(c2cccc([18F])n2)CC1 (stereo not shown) [[^18F]7b]",
    "readoutUnits": "L/kg",
    "Vd": 1.38
  }
]

====

# assayProtocol: Metabolic stability and arterial blood clearance in a normal Wistar rat
# Type: in vivo
# assaySetup: male, Wistar, rat, plasma, iv, 5.27 nmol, i.v., radio-HPLC data, read-out: plasma clearance (plasma CL)
# Description: The following procedure was performed as recently published (Laube et al. [2020]). […] Clear supernatant separated by a second centrifugation step (3 min; 13,000 × g) was analyzed by radio-HPLC (Hewlett Packard Series 1100 equipped with a γ-detector (Raytest Ramona), Zorbax SB-C18, 300 Å, 4 μm, 250 × 9.4 mm (Agilent), eluent A, 0.1% (v/v) trifluoroacetic acid in H2O; eluent B, 0.1% (v/v) trifluoroacetic acid in CH3CN). […]
assayMetric: clearance (mL/min/kg)

[
  {
    "molecule": "C=CC(=O)NCCCCC(NC(=O)Cc1ccccc1)C(=O)N1CCN(c2cccc([18F])n2)CC1 (stereo not shown) [[^18F]7b]",
    "assayMetric": "clearance",
    "readoutUnits": "mL/min/kg",
    "val": 56
  }
]

====

# assayProtocol: Liver microsome assay
# Format: in vitro ADME, murine
# assaySetup: mouse, liver microsomes, t1/2 approach (at 3-4 µM), 1 mg/mL MLM, 2 mM NADPH, radio-HPLC
assayMetric: half-life (min)

[
  {
    "compound": "C=CC(=O)NCCCCC(NC(=O)Cc1ccccc1)C(=O)N1CCN(c2cccc([18F])n2)CC1 (stereo not shown) [[^18F]7b]",
    "assayMetric": "half-life",
    "readoutUnits": "min",
    "val": 5.7
  }
]

====

# assayProtocol: Metabolic stability and arterial blood clearance in a normal Wistar rat
# Assay type: in vivo
# assaySetup: male, Wistar, rat, arterial blood, iv, 5.27 nmol, radio-HPLC

[
  {
    "compound": "C=CC(=O)NCCCCC(NC(=O)Cc1ccccc1)C(=O)N1CCN(c2cccc([18F])n2)CC1 (stereo not shown) [[^18F]7b]",
    "Vd, L": 0.235
  }
]

====

# assayProtocol: Liver microsome assay
# Format: in vitro ADME, murine
# assaySetup: mouse, liver microsomes, t1/2 approach; read-out: predicted intrinsic clearance (pred. CLint)

[
  {
    "compound": "C=CC(=O)NCCCCC(NC(=O)Cc1ccccc1)C(=O)N1CCN(c2cccc([18F])n2)CC1 (stereo not shown) [[^18F]7b]",
    "CLint scaled / mL/min/kg": 772
  }
]

====

# assayProtocol: Metabolic stability and arterial blood clearance in a normal Wistar rat
# Assay type: in vivo
# assaySetup: male, Wistar, rat, arterial blood, iv, 5.27 nmol, i.v., radio-TLC, read-out: terminal t1/2
assayMetric: half-life

[
  {
    "molecule": "C=CC(=O)NCCCCC(NC(=O)Cc1ccccc1)C(=O)N1CCN(c2cccc([18F])n2)CC1 (stereo not shown) [[^18F]7b]",
    "val": "16 min"
  }
]
